Data provenance: patent US20180221352A1

# Test system: IL-6
# assay-summary: IL-6 inhibition in LPS-stimulated THP-1 cells (HTRF)
# Format: cell-based
# condition-notes: Homo sapiens, THP-1; read-out: percent inhibition at 10 μM
# Experimental: THP-1 cells were cultured in basal media with 1% FBS for 24 hours before the start of the assay. […] THP-1 cells were plated at 5000 cells/well in the 384-well plates and incubated at 37° C. for 2 h. […] Following incubation for 3 hrs at room temperature, Homogeneous Time-Resolved Fluorescence (HTRF) was measured using the Envision (Perkin Elmer) at 665 nm and […]. The ratio of fluorescence at 665 nm to 620 nm was used as a readout for IL6 quantification. […]
assay-readout: inhibition at 10 µM (%)
Give a bare numeral; the unit % is implied.

Solved cases (8 shown):
INSERT INTO assay_data (compound_string, assay_readout, numeric_value) VALUES
  ('Cc1ncc(-c2cnc3[nH]nc(-c4cc5c(-c6ccncc6)cncc5[nH]4)c3c2)n1C', 'inhibition at 10 µM', 0),
  ('c1ccc(-c2cnc3[nH]nc(-c4cc5c(-c6cccnc6)cncc5[nH]4)c3c2)nc1', 'inhibition at 10 µM', 16.9),
  ('c1cc2cc(-c3n[nH]c4ncc(-c5cncc(CN6CCCC6)c5)cc34)[nH]c2cn1', 'inhibition at 10 µM', 47.6),
  ('O=C(Nc1cncc(-c2cnc3[nH]nc(-c4cc5c(-c6ccncc6)cncc5[nH]4)c3c2)c1)C1CCC1', 'inhibition at 10 µM', 43.3),
  ('CN(C)c1cncc(-c2cnc3[nH]nc(-c4cc5c(-c6ccncc6)cncc5[nH]4)c3c2)c1', 'inhibition at 10 µM', 40.7),
  ('CC(C)CC(=O)Nc1cncc(-c2cnc3[nH]nc(-c4cc5c(-c6ccc(F)cc6)cncc5[nH]4)c3c2)c1', 'inhibition at 10 µM', 24.6),
  ('O=C(Nc1cncc(-c2cnc3[nH]nc(-c4cc5c(-c6ccncc6)cncc5[nH]4)c3c2)c1)C1CCCC1', 'inhibition at 10 µM', 30),
  ('Fc1ccc(-c2cncc3[nH]c(-c4n[nH]c5ncc(-c6cncnc6)cc45)cc23)cc1', 'inhibition at 10 µM', 29.8);

Prompt: Which inhibition at 10 µM is listed for O=C(CC1CCNCC1)Nc1cncc(-c2cnc3[nH]nc(-c4cc5c(-c6cccnc6)cncc5[nH]4)c3c2)c1 ?
Response: 14.5

Prompt: Fill in the blank: the reported inhibition at 10 µM of Fc1ccc(-c2cncc3[nH]c(-c4n[nH]c5ncc(-c6ccccn6)cc45)cc23)cc1 is ____.
Response: 25

Prompt: For Fc1cccc(-c2cncc3[nH]c(-c4n[nH]c5ncc(-c6ccncc6)cc45)cc23)c1 , what is its reported inhibition at 10 µM?
Response: 20.3

Prompt: Using the record for Cc1ccncc1-c1cnc2[nH]nc(-c3cc4c(-c5ccc(F)cc5)cncc4[nH]3)c2c1 , report its inhibition at 10 µM.
Response: 26.1

Prompt: I have this compound here, O=C(Nc1cncc(-c2cnc3[nH]nc(-c4cc5c(N6CCCCC6)cncc5[nH]4)c3c2)c1)c1ccccc1 , and I need its recorded inhibition at 10 µM.
Response: 36.1

Prompt: Using the record for CCCCC(=O)Nc1cncc(-c2cnc3[nH]nc(-c4cc5c(-c6ccncc6)cncc5[nH]4)c3c2)c1 , report its inhibition at 10 µM.
Response: 24.5
